# maps each entry to its pIC50
molecular target: HIF-2α (Homo sapiens, UniProt Q99814); test: HIF-2α Luciferase Reporter Assay (serum free) in HIF-Luc-786-0 cells; format: cell-based; conditions: Opti-MEM, 786-0 reporter cells, 20 hours incubation
Sequence (Q99814 whole entry): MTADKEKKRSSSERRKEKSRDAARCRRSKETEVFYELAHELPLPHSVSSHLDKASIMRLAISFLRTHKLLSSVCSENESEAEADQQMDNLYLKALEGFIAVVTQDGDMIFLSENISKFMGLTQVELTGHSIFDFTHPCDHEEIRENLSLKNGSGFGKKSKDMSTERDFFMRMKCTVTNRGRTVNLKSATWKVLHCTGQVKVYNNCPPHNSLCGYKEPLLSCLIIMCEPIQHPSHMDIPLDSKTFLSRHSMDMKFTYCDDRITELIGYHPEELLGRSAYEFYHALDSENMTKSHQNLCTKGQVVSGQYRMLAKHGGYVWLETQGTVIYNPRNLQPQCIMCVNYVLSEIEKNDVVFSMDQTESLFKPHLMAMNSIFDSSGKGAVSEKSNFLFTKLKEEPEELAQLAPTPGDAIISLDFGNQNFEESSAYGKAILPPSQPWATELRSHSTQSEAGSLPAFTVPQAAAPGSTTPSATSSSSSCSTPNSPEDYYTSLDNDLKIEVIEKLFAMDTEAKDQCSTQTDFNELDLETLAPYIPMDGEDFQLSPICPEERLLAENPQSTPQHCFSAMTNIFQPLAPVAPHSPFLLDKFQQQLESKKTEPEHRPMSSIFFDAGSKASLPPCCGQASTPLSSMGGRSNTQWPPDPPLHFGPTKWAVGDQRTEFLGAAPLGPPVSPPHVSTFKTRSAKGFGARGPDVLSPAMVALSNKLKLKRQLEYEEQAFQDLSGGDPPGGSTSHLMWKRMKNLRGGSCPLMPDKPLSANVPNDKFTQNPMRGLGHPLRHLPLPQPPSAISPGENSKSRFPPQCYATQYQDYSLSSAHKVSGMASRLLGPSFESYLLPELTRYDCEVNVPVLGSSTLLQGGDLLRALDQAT
pIC50: −log10 of the molar value.

// below: answered compounds
[
  {
    "compound": "O[C@H]1c2c(C(F)(F)F)nn(CCC3(F)COC3)c2CCC1(F)F",
    "pIC50": "6.00 to 7.00"
  },
  {
    "compound": "O[C@H]1c2c(C(F)(F)F)nn([C@@H]3COCC(F)(F)C3)c2CC1(F)F",
    "pIC50": "6.00 to 7.00"
  },
  {
    "compound": "O[C@H]1c2c(C(F)(F)F)nn([C@@H]3C[C@@H](F)[C@@H](F)[C@@H](F)C3)c2[C@H](F)[C@H]1F",
    "pIC50": "> 7.00"
  },
  {
    "compound": "O[C@H]1c2c(C(F)(F)F)nn(CC3CC3(F)F)c2CCC1(F)F (single isomer, unassigned) [23/24 DIAST-2]",
    "pIC50": "6.00 to 7.00"
  }
]

Ask: Supply measured pIC50 of CO[C@H]1CCCC[C@H]1n1nc(C(F)(F)F)c2c1CC(F)(F)[C@H]2O (racemic) in your reply.
Result: < 6.00

Ask: For the compound `O[C@H]1c2c(C(F)(F)F)nn(-c3ccc(Cl)c(F)c3)c2CC1(F)F` , give its measured pIC50 value.
Result: > 7.00

----------
molecular target: HIF-2α (Homo sapiens, UniProt Q99814); assay: HIF-2α Luciferase Reporter Assay (serum), HRE-luciferase 786-0 cells in 100% human serum; format: cell-based; conditions: ratio of IC50 in 100% serum to IC50 in serum free conditions; approximate
Form field: Serum Shift (approximate) (one value per entry).
Simply state the number, no unit and no words.

Ask: Supply Serum Shift (approximate) value. Item: O[C@H]1c2c(C(F)(F)F)nn([C@@H]3CC[C@@H](F)[C@@H](F)C3)c2CC1(F)F (single isomer, unassigned) [72/73 DIAST-1]
Result: 8

Ask: Respond only with Serum Shift (approximate) recorded for `CC(C)(C#N)CCn1nc(C(F)(F)F)c2c1CCC(F)(F)[C@H]2O`
Result: 2

Ask: Supply reported Serum Shift (approximate) belonging to this molecule: `O[C@H]1c2c(C(F)(F)F)nn(CCCC(F)(F)F)c2[C@H](F)[C@H]1F`
Result: 6

Ask: Return reported Serum Shift (approximate). Input molecule: CC(C#N)CCn1nc(C(F)(F)F)c2c1CCC(F)(F)[C@H]2O (stereo partly drawn)
Result: 1

Ask: Answer with reported Serum Shift (approximate) of `CCO[C@H](CCn1nc(C(F)(F)F)c2c1CC(F)(F)[C@H]2O)C(F)(F)F`
Result: 11

Ask: For the molecule O[C@H]1c2c(C(F)(F)F)nn([C@H]3C[C@@H](F)[C@@H](F)[C@@H](F)C3)c2CC1(F)F (mixture of isomers) , report Serum Shift (approximate).
Result: 6

Ask: Output Serum Shift (approximate) of `O[C@H]1c2c(C(F)(F)F)nn([C@@H]3CC[C@@H](F)[C@@H](F)C3)c2[C@H](F)C1(F)F`
Result: 18
